Target: T1, human IL-36R on cells (human, UniProt Q9HB29 20-575)
T1 sequence (looked up): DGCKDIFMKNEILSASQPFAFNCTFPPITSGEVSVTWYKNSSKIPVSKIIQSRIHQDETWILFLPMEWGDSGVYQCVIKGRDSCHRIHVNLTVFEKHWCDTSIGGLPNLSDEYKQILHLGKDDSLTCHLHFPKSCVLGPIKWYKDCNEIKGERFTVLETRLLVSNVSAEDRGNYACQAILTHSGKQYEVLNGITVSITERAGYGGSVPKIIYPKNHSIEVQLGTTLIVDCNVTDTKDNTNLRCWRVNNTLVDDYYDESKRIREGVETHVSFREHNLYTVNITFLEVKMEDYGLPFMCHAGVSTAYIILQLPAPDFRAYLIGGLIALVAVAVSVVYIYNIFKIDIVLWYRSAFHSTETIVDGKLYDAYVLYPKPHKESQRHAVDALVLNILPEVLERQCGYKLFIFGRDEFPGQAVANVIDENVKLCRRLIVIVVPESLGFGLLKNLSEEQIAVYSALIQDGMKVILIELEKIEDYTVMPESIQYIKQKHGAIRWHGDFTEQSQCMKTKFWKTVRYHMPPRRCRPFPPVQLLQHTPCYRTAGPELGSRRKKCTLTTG
Experiment: cell-based or functional assay
measure: IC90, IL-8 release, human primary keratinocytes (NHK), trun-IL-36b (nM)
Number only, in nM; omit the unit.

Could you tell me which IC90, IL-8 release, human primary keratinocytes (NHK), trun-IL-36b is on file for antibody 33D10 (antibody, V domains shown, Mouse monoclonal from hybridoma; also called 33D10B12; Mouse 33D10) VH: QVQLQQSGTELLKPGASVKLSCKASGNTVTSYWMHWVKQRPGQGLEWIGEILPSTGRTNYNENFKGKAMLTVDKSSSTAYMQLSSLASEDSAVYYCTIVYFGNPWFAYWGQGTLVTVSA VL: QIVLTQSPAIMSASLGERVTMTCTASSSVSSSYLHWYQKKPGSSPKLWVYSTSNLASGVPVRFSGSGSGTSYSLTISSMEAEDAATYYCHQHHRSPVTFGSGTKLEMK ?
3
